# pIC50 per entry
Test system: Toxoplasma gondii
PROTOCOL_SUMMARY: Inhibition of Toxoplasma gondii cell growth
Format: functional, organism-based
// field semantics: pIC50 = negative decimal log of concentration (mol/L)

Previously resolved entries follow.
Memo: COc1ccc(OC)c(CCc2cnc3nc(N)nc(N)c3c2C)c1 , reported pIC50: 7.00

# pIC50 (compound: Nc1nc(N)c2nc(CNc3ccc(Cl)cc3)cnc2n1 ) is 6.15

Entry Nc1nc(N)c2cc(CNc3ccc(Cl)cc3)cnc2n1 — recorded pIC50 = 5.40

---
// recorded pIC50 for Cc1c(CNc2cccc3c2CCCC3)cnc2nc(N)nc(N)c12 : 7.22

pIC50 recorded for this compound, COc1cc(NCc2cnc3nc(N)nc(N)c3c2C)cc(C(F)(F)F)c1 , is 6.70
